# system: human factor XIa (Homo sapiens)
# Sequence (P03951 388-625 limits assumed): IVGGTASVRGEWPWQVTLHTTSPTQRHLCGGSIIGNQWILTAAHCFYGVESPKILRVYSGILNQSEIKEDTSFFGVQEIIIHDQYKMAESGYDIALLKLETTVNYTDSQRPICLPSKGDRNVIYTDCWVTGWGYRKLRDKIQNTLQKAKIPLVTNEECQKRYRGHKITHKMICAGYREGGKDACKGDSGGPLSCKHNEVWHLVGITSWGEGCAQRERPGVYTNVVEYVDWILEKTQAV
# Sequence (P03951 19-387 partner limits assumed): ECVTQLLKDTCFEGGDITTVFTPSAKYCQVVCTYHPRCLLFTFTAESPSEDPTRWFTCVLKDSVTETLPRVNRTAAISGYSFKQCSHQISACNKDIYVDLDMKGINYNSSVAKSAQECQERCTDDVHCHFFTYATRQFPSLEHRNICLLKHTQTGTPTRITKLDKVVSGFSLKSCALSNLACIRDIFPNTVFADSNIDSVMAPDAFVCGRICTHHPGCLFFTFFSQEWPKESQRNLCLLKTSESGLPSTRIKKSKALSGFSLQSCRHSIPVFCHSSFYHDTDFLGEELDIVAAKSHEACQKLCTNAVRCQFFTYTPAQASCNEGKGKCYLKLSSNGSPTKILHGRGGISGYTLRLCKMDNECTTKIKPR
endpoint: IC50

## Task Name the reported IC50 value associated with the compound O=c1c2ccccc2nc(-c2ccc(OS(=O)(=O)O)cc2)n1Cc1cn(CCn2cc(Cn3c(-c4ccc(OS(=O)(=O)O)cc4)nc4ccccc4c3=O)nn2)nn1 [Inhibitor 28S]
## Result < 100 µM

* * *

# system: FXIa-DEGR (Homo sapiens, UniProt P03951)
# Sequence (P03951 388-625 limits assumed): as the sequence (P03951 388-625 limits assumed) above
# Sequence (P03951 19-387 partner limits assumed): as the sequence (P03951 19-387 partner limits assumed) above
# protocol notes: Fluorescence titration of active site labeled FXIa
# Format: binding
# run conditions: 250 nM FXIa-DEGR, pH 7.4, 37 °C
Recorded Hill coefficient n for the following compounds

## Task Requested field: Hill coefficient n. Item: O=c1c2ccccc2nc(-c2ccc(OS(=O)(=O)O)cc2)n1CCCCCn1cc(Cn2c(-c3ccc(OS(=O)(=O)O)cc3)nc3ccccc3c2=O)nn1 [Inhibitor 15S]
## Result 6.8 ± 2.7

## Task Which Hill coefficient n value is on record for O=c1c2ccccc2nc(-c2ccc(OS(=O)(=O)O)cc2)n1CCCCn1cc(Cn2c(-c3ccc(OS(=O)(=O)O)cc3)nc3ccccc3c2=O)nn1 [Inhibitor 13S] ?
## Result 7.9 ± 1.9

## Task Fill in the blank: the reported Hill coefficient n of O=c1c2ccccc2nc(-c2cccc(OS(=O)(=O)O)c2)n1CCCCn1cc(Cn2c(-c3ccc(OS(=O)(=O)O)cc3)nc3ccccc3c2=O)nn1 [Inhibitor 14S] is ____.
## Result 9.0 ± 1.1

## Task Sample O=c1c2ccccc2nc(-c2ccc(OS(=O)(=O)O)cc2)n1CCCCCCn1cc(Cn2c(-c3ccc(OS(=O)(=O)O)cc3)nc3ccccc3c2=O)nn1 [Inhibitor 16S] — what was its Hill coefficient n?
## Result 6.4 ± 2.0

* * *

# system: FXIa-DEGR (Homo sapiens)
# protocol notes: Fluorescence titration of active site labeled FXIa
# Assay type: binding
# run conditions: 250 nM FXIa-DEGR, pH 7.4, 37 °C, 547 nm
endpoint: ΔFMAX (%)
Numbers only here, please. The scale is %.

[[record]]
molecule = "O=c1c2ccccc2nc(-c2ccc(OS(=O)(=O)O)cc2)n1CCCCCn1cc(Cn2c(-c3ccc(OS(=O)(=O)O)cc3)nc3ccccc3c2=O)nn1 [Inhibitor 15S]"
system = "FXIa-DEGR (Homo sapiens)"
endpoint = "ΔFMAX"
measured_value = 72

[[record]]
molecule = "O=c1c2ccccc2nc(-c2cccc(OS(=O)(=O)O)c2)n1CCCCn1cc(Cn2c(-c3ccc(OS(=O)(=O)O)cc3)nc3ccccc3c2=O)nn1 [Inhibitor 14S]"
system = "FXIa-DEGR (Homo sapiens)"
endpoint = "ΔFMAX"
measured_value = 57


Now consider the entry below.
## Task Endpoint output: ΔFMAX of O=c1c2ccccc2nc(-c2ccc(OS(=O)(=O)O)cc2)n1CCCCCCn1cc(Cn2c(-c3ccc(OS(=O)(=O)O)cc3)nc3ccccc3c2=O)nn1 [Inhibitor 16S] . Value?
## Result 90

Source: paper PMC3625964
